Test: CHI Log D procedure
Assay type: physicochemical
Details: pH 7.4
Would you mind labelling by CHI Log D? At or over 2 is MET, under is NOT MET.

Some solved entries appear below for comparison.
1. CC(=O)N1CCC[C@]12CC=CCCCC1(CCCC=CCCCCCC[C@@](C)(C(=O)N[C@@H](Cc3cccc4ccccc34)C(=O)N[C@@H](Cc3c[nH]c4ccccc34)C(=O)N[C@@H](CCC(N)=O)C(N)=O)NC(=O)[C@H](C(C)C)NC(=O)[C@H](Cc3ccccc3)NC(=O)[C@H](C)NC(=O)[C@H](C)NC(=O)[C@H](CC(=O)O)NC(=O)[C@H](CC(=O)O)NC1=O)NC(=O)[C@H](C)NC(=O)[C@H](CC(=O)O)NC2=O (stereo partly shown) [I-275] | MET
2. CC[C@H](C)[C@@H]1NC(=O)[C@H](CC(=O)O)NC(=O)[C@]2(CC=CCCCC3(CCCC=CCCCCCC[C@@](C)(C(=O)N[C@@H](Cc4ccccc4)C(=O)N[C@@H](Cc4csc5ccccc45)C(=O)N[C@H](C(N)=O)C(C)C)NC(=O)[C@H](CCC(N)=O)NC(=O)[C@H](Cc4ccccc4)NC(=O)[C@H](C)NC(=O)[C@H](C)NC(=O)[C@H](CCC(=O)O)NC(=O)[C@H](CC(=O)O)NC3=O)NC1=O)CCCN2C(C)=O (stereo partly shown) [I-645] | MET
3. CCCC[C@@H]1NC(=O)[C@H](CC(=O)O)NC(=O)[C@](C)(NC(=O)[C@@H](NC(=O)[C@H](CC(=O)O)NC(=O)[C@H](C)NC(C)=O)[C@@H](C)CC)CCN(C)C(=O)OCC=CCCCCC[C@@](C)(C(=O)N[C@@H](Cc2ccccc2)C(=O)N[C@@H](Cc2c[nH]c3ccccc23)C(=O)N[C@@H](Cc2c[nH]cn2)C(N)=O)NC(=O)[C@H](CCC(N)=O)NC(=O)[C@H](Cc2ccccc2)NC(=O)[C@H](C)NC(=O)[C@H](C)NC1=O [I-68] | NOT MET
4. CC(=O)N[C@@H](Cc1ccccc1)C(=O)N[C@@H](CC(=O)O)C(=O)N[C@@H](C)C(=O)N[C@]1(C)CCCCCCC=CCOC(=O)N2CC[C@@](C(=O)N[C@@H](Cc3ccccc3)C(=O)N[C@@H](Cc3c[nH]c4ccccc34)C(=O)N[C@@H](CCC(N)=O)C(N)=O)(C2)NC(=O)[C@H](C(C)C)NC(=O)[C@H](Cc2ccc(C(N)=O)cc2)NC(=O)[C@H](C)NC(=O)[C@H](C)NC(=O)[C@H](CC(=O)O)NC(=O)[C@H](CC(=O)O)NC1=O [I-92] | NOT MET

API: above_or_equal(metric=CHI Log D, cutoff=2) for item CC[C@@H]1NC(=O)[C@H](CC(=O)O)NC(=O)[C@]2(CC=CCCCC3(CCCC=CCCCCCC[C@@](C)(C(=O)N[C@@H](Cc4ccccc4)C(=O)N[C@@H](Cc4csc5ccccc45)C(=O)N[C@@H](CCC(N)=O)C(N)=O)NC(=O)[C@H](CC(N)=O)NC(=O)[C@H](Cc4ccccc4)NC(=O)[C@H](C)NC(=O)[C@H](C)NC(=O)[C@H](CCC(=O)O)NC(=O)[C@H](CC(=O)O)NC3=O)NC1=O)CCCN2C(C)=O (stereo partly shown) [I-473] MET

// inclusive: CHI Log D at least 2? input: CC(=O)N1CCC[C@]12CC=CCCCC1(CCCC=CCCCCCC[C@@](C)(C(=O)N[C@@H](Cc3ccc4ccccc4c3)C(=O)N[C@@H](Cc3c[nH]c4ccccc34)C(=O)N[C@@H](CCC(N)=O)C(N)=O)NC(=O)[C@H](C(C)C)NC(=O)[C@H](Cc3ccccc3)NC(=O)[C@H](C)NC(=O)[C@H](C)NC(=O)[C@H](CC(=O)O)NC(=O)[C@H](CC(=O)O)NC1=O)NC(=O)[C@H](C)NC(=O)[C@H](CC(=O)O)NC2=O (stereo partly shown) [I-278] MET

Please check the record CC(=O)N1CCC[C@]12CC=CCCCC1(CCCC=CCCCCCC[C@@](C)(C(=O)N[C@@H](Cc3ccccc3)C(=O)N[C@@H](Cc3csc4ccccc34)C(=O)N[C@H](C(N)=O)[C@@H](C)O)NC(=O)[C@H](CCC(N)=O)NC(=O)[C@H](Cc3ccccc3)NC(=O)[C@H](C)NC(=O)[C@H](C)NC(=O)[C@H](CCC(=O)O)NC(=O)[C@H](CC(=O)O)NC1=O)NC(=O)[C@H](C)NC(=O)[C@H](CC(=O)O)NC2=O (stereo partly shown) [I-508] and state if its CHI Log D is at or above 2. MET

Kindly determine if CHI Log D recorded for CC(=O)N[C@@H](Cc1ccccc1)C(=O)N[C@@H](CC(=O)O)C(=O)N[C@@H](C)C(=O)N[C@]1(C)CCCCCCC=CCOC(=O)N2CC[C@@](C(=O)N[C@@H](Cc3ccccc3C(N)=O)C(=O)N[C@@H](Cc3c[nH]c4ccccc34)C(=O)N[C@@H](CCC(N)=O)C(N)=O)(C2)NC(=O)[C@H](C(C)C)NC(=O)[C@H](Cc2ccccc2)NC(=O)[C@H](C)NC(=O)[C@H](C)NC(=O)[C@H](CC(=O)O)NC(=O)[C@H](CC(=O)O)NC1=O (single isomer, unassigned) is above or exactly 2. NOT MET

Item CC(=O)N1CCC[C@]12CC=CCCCC1(CCCC=CCCCOC(=O)N3CC[C@@](C(=O)N[C@@H](Cc4ccccc4Cl)C(=O)N[C@@H](Cc4csc5ccccc45)C(=O)N[C@H](C(N)=O)[C@@H](C)O)(C3)NC(=O)[C@H](CC(C)C)NC(=O)[C@H](Cc3ccccc3)NC(=O)[C@H](C)NC(=O)[C@H](C)NC(=O)[C@H](CCC(=O)O)NC(=O)[C@H](CC(=O)O)NC1=O)NC(=O)[C@H](CC(C)(C)C)NC(=O)[C@H](CC(=O)O)NC2=O (stereo partly shown) [I-1070] with CHI Log D of 2 or above? MET

----------
Target: full-length beta-Catenin (Uniprot ID P35222) (Homo sapiens)
Construct: 10 nM full-length beta-Catenin (Uniprot ID P35222)
Sequence (P35222 whole entry): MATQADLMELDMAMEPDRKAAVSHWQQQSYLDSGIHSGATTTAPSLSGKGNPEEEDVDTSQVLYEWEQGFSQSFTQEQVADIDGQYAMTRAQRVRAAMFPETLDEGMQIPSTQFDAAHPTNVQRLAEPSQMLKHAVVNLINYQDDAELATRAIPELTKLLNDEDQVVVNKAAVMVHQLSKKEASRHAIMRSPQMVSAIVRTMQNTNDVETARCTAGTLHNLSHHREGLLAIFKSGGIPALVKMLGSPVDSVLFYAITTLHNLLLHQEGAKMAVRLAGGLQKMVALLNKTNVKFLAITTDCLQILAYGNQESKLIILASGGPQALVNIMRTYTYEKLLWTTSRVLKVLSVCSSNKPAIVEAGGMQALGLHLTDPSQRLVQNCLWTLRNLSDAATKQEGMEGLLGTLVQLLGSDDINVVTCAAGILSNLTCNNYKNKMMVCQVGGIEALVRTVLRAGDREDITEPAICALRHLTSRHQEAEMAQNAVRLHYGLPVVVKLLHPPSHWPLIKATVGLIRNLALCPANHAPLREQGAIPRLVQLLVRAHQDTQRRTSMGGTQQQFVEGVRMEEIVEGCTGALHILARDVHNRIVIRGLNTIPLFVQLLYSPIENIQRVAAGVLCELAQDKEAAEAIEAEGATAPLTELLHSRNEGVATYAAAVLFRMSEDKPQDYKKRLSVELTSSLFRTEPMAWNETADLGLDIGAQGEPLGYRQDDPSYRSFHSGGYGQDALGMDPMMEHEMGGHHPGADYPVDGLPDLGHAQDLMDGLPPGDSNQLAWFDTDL
Assay: Fluorescence polarization IC50 (beta-catenin / 5FAM-TCF4 10-53 competition)
Assay type: binding
Conditions: read-out: FP EC50
Field: pIC50. Provide a value for each of the compounds that follow.
Answers are plain numbers, as −log10 of the molar value.

Sample answers from the record:
1) CC[C@H](C)[C@@H]1NC(=O)[C@H](CC(=O)O)NC(=O)[C@]2(CC=CCCCC3(CCCC=CCCCCCC[C@@](C)(C(=O)N[C@@H](Cc4ccccc4)C(=O)N[C@@H](Cc4csc5ccccc45)C(=O)N[C@@H](CCC(N)=O)C(N)=O)NC(=O)[C@H](CCC(N)=O)NC(=O)[C@H](Cc4ccccc4)NC(=O)[C@H](C)NC(=O)[C@H](C)NC(=O)[C@H](CN(CC)CC(=O)O)NC(=O)[C@H](CC(=O)O)NC3=O)NC1=O)CCCN2C(C)=O (some centres unmarked) [I-609] | 7.10
2) CC(=O)N1CCC[C@]12CC=CCCCC1(CCCC=CCCCCCC[C@@](C)(C(=O)N[C@@H](Cc3ccccc3)C(=O)N[C@@H](Cc3csc4ccccc34)C(=O)N[C@@H](C(N)=O)[C@H](C)O)NC(=O)[C@H](CC(N)=O)NC(=O)[C@H](Cc3ccccc3)NC(=O)[C@H](C)NC(=O)[C@H](C)NC(=O)[C@H](CCC(=O)O)NC(=O)[C@H](CC(=O)O)NC1=O)NC(=O)[C@H](CC(C)C)NC(=O)[C@H](CC(=O)O)NC2=O (some centres unmarked) [I-755] | 7.06
3) CC[C@H](C)[C@@H]1NC(=O)[C@H](CC(=O)O)NC(=O)[C@]2(CC=CCCCC3(CCCC=CCCCCCC[C@@](C)(C(=O)N[C@@H](Cc4ccccc4)C(=O)N[C@@H](Cc4csc5ccccc45)C(N)=O)NC(=O)[C@H](CCC(N)=O)NC(=O)[C@H](Cc4ccccc4)NC(=O)[C@H](C)NC(=O)[C@H](C)NC(=O)[C@H](CCC(=O)O)NC(=O)[C@H](CC(=O)O)NC3=O)NC1=O)CCCN2C(C)=O (some centres unmarked) [I-409] | 7.15
4) CC[C@H](C)[C@@H]1NC(=O)[C@H](CC(=O)O)NC(=O)[C@]2(CC=CCCCC3(CCCC=CCCCCCC[C@@](C)(C(=O)N[C@@H](Cc4ccccc4)C(=O)N[C@@H](Cc4csc5ccccc45)C(=O)N[C@@H](CCC(N)=O)C(N)=O)NC(=O)[C@H](CCC(N)=O)NC(=O)[C@H](Cc4ccccc4)NC(=O)[C@H](C)NC(=O)[C@H](Cc4ccccc4)NC(=O)[C@H](CCC(=O)O)NC(=O)[C@H](CC(=O)O)NC3=O)NC1=O)CCCN2C(C)=O (some centres unmarked) [I-650] | 6.86

Next item in the queue.
Answer briefly: pIC50 recorded on full-length beta-Catenin (Uniprot ID P35222) (Homo sapiens) for CO[C@H](C)[C@@H]1NC(=O)[C@H](CC(=O)O)NC(=O)[C@]2(CC=CCCCC3(CCCC=CCCCCCC[C@@](C)(C(=O)N[C@@H](Cc4ccccc4)C(=O)N[C@@H](Cc4csc5ccccc45)C(=O)N[C@@H](CCC(N)=O)C(N)=O)NC(=O)[C@H](CCC(N)=O)NC(=O)[C@H](Cc4ccccc4)NC(=O)[C@H](C)NC(=O)[C@H](C)NC(=O)[C@H](CCC(=O)O)NC(=O)[C@H](CC(=O)O)NC3=O)NC1=O)CCCN2C(C)=O (some centres unmarked) [I-541] 6.74

Where do the numbers come from? From patent US20240116985A1.
